Target: Protein cereblon/Non-receptor tyrosine-protein kinase TYK2 (Homo sapiens, UniProt P29597+Q96SW2)
Sequence (P29597 whole entry, looked up): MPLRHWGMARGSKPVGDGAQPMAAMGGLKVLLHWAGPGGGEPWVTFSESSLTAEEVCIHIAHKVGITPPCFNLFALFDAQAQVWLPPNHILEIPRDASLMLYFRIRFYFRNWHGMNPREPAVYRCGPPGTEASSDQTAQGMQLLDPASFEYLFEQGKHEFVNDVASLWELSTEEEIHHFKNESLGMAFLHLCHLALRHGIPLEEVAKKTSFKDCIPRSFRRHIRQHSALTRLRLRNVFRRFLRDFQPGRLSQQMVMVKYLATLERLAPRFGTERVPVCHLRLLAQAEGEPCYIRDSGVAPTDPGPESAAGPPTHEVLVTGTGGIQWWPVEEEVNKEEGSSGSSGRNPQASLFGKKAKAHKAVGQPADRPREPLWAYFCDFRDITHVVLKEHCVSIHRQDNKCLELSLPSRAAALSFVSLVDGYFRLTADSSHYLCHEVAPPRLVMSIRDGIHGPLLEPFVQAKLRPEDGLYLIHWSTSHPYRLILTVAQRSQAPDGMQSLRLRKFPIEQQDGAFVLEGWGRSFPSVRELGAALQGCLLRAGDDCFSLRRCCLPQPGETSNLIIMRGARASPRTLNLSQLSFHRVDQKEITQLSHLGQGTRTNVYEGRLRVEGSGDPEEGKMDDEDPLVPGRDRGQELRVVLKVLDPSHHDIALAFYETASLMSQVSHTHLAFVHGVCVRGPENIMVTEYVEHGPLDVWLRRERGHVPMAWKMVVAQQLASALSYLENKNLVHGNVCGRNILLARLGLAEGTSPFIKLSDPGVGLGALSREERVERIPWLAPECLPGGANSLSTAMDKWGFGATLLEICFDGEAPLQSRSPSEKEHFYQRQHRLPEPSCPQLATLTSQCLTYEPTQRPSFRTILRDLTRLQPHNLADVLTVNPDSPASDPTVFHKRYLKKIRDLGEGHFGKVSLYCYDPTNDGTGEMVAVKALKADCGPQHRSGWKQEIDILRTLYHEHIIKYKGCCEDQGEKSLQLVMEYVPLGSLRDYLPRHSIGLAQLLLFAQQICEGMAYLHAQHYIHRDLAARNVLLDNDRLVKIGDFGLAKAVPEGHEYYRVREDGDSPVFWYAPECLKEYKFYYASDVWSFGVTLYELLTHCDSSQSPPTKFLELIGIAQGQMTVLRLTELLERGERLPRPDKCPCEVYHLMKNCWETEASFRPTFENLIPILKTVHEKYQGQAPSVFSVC
Sequence (Q96SW2 whole entry, looked up): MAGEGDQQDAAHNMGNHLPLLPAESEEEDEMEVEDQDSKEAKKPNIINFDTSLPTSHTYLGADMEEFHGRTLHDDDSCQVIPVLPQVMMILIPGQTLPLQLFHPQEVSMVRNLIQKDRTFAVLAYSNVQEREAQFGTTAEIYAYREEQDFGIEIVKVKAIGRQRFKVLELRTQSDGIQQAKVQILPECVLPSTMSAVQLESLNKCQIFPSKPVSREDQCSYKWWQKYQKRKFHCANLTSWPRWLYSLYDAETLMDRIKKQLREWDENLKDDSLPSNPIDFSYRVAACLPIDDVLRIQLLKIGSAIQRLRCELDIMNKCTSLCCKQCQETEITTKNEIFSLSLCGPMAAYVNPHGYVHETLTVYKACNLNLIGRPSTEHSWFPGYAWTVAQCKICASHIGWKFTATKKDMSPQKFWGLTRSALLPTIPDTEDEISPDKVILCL
Assay: PROTAC activity at CRBN/TYK2 in human Jurkat cells assessed as induction of degradation of TYK2 at 10 nM measured after 10 hrs by Western blot analysis relative to control
Assay type: cell-based
ASSAY_READOUT: Activity (%)

CNC(=O)c1cnc(Nc2ccc(C(=O)NCCCCCNc3cccc4c3C(=O)N(C3CCC(=O)NC3=O)C4=O)cn2)cc1Nc1cccc(-c2ncc(F)cn2)c1OC (stereo not given) ... 86
CNC(=O)c1cnc(Nc2ccc(C(=O)NCCCCCNc3ccc4c(c3)C(=O)N(C3CCC(=O)NC3=O)C4=O)cn2)cc1Nc1cccc(-c2ncc(F)cn2)c1OC (stereo not given) ... 88
CNC(=O)c1cnc(Nc2ccc(C(=O)NCCOCCNc3cccc4c3C(=O)N(C3CCC(=O)NC3=O)C4=O)cn2)cc1Nc1cccc(-c2ncc(F)cn2)c1OC (stereo not given) ... 32
CNC(=O)c1cnc(Nc2ccc(C(=O)N3CC(N4CCN(c5ccc6c(c5)C(=O)N(C5CCC(=O)NC5=O)C6=O)CC4)C3)cn2)cc1Nc1cccc(-c2ncc(F)cn2)c1OC (stereo not given) ... 77
CNC(=O)c1cnc(Nc2ccc(C(=O)NCCCCCCNc3ccc4c(c3)C(=O)N(C3CCC(=O)NC3=O)C4=O)cn2)cc1Nc1cccc(-c2ncc(F)cn2)c1OC (stereo not given) ... 46
CNC(=O)c1cnc(Nc2ccc(C(=O)NCCOCCOCCNc3cccc4c3C(=O)N(C3CCC(=O)NC3=O)C4=O)cn2)cc1Nc1cccc(-c2ncc(F)cn2)c1OC (stereo not given) ... 5
CNC(=O)c1cnc(Nc2ccc(C(=O)N3CCC(CNc4ccc5c(c4)C(=O)N(C4CCC(=O)NC4=O)C5=O)CC3)cn2)cc1Nc1cccc(-c2ncc(F)cn2)c1OC (stereo not given) ... 35
CNC(=O)c1cnc(Nc2ccc(C(=O)N3CCC4(CC3)CCN(c3ccc5c(c3)C(=O)N(C3CCC(=O)NC3=O)C5=O)CC4)cn2)cc1Nc1cccc(-c2ncc(F)cn2)c1OC (stereo not given) ... 65
CNC(=O)c1cnc(Nc2ccc(C(=O)N3CC4(CCN(c5ccc6c(c5)C(=O)N(C5CCC(=O)NC5=O)C6=O)CC4)C3)cn2)cc1Nc1cccc(-c2ncc(F)cn2)c1OC (stereo not given) ... 69
CNC(=O)c1cnc(Nc2ccc(C(=O)NC3CCC(Nc4ccc5c(c4)C(=O)N(C4CCC(=O)NC4=O)C5=O)CC3)cn2)cc1Nc1cccc(-c2ncc(F)cn2)c1OC (stereo not given) ... 96
CNC(=O)c1cnc(Nc2ccc(C(=O)N3CC4(C3)CN(c3ccc5c(c3)C(=O)N(C3CCC(=O)NC3=O)C5=O)C4)cn2)cc1Nc1cccc(-c2ncc(F)cn2)c1OC (stereo not given) ... 83
CNC(=O)c1cnc(Nc2ccc(C(=O)NCCNc3cccc4c3C(=O)N(C3CCC(=O)NC3=O)C4=O)cn2)cc1Nc1cccc(-c2ncc(F)cn2)c1OC (stereo not given) ... 12
CNC(=O)c1cnc(Nc2ccc(C(=O)NCCCCCCNc3cccc4c3C(=O)N(C3CCC(=O)NC3=O)C4=O)cn2)cc1Nc1cccc(-c2ncc(F)cn2)c1OC (stereo not given) ... 48
CNC(=O)c1cnc(Nc2ccc(C(=O)NCCCNc3cccc4c3C(=O)N(C3CCC(=O)NC3=O)C4=O)cn2)cc1Nc1cccc(-c2ncc(F)cn2)c1OC (stereo not given) ... 18
CNC(=O)c1cnc(Nc2ccc(C(=O)N3CCN(C4CCN(c5ccc6c(c5)C(=O)N(C5CCC(=O)NC5=O)C6=O)CC4)CC3)cn2)cc1Nc1cccc(-c2ncc(F)cn2)c1OC (stereo not given) ... 17
CNC(=O)c1cnc(Nc2ccc(C(=O)NCCCCCCCCNc3cccc4c3C(=O)N(C3CCC(=O)NC3=O)C4=O)cn2)cc1Nc1cccc(-c2ncc(F)cn2)c1OC (stereo not given) ... 72
CNC(=O)c1cnc(Nc2ccc(C(=O)N3CC4(CC(Nc5ccc6c(c5)C(=O)N(C5CCC(=O)NC5=O)C6=O)C4)C3)cn2)cc1Nc1cccc(-c2ncc(F)cn2)c1OC (stereo not given) ... 62
CNC(=O)c1cnc(Nc2ccc(C(=O)NCCCCNc3ccc4c(c3)C(=O)N(C3CCC(=O)NC3=O)C4=O)cn2)cc1Nc1cccc(-c2ncc(F)cn2)c1OC (stereo not given) ... 42
CNC(=O)c1cnc(Nc2ccc(C(=O)N3CCC(CN4CCN(c5ccc6c(c5)C(=O)N(C5CCC(=O)NC5=O)C6=O)CC4)CC3)cn2)cc1Nc1cccc(-c2ncc(F)cn2)c1OC (stereo not given) ... 78
CNC(=O)c1cnc(Nc2ccc(C(=O)NCCCCNc3cccc4c3C(=O)N(C3CCC(=O)NC3=O)C4=O)cn2)cc1Nc1cccc(-c2ncc(F)cn2)c1OC (stereo not given) ... 26
